Task for the reader: assign each of the following binders its reported Kd.
# test_system: T1, human IL-11 (human, UniProt P20809 22-199)
# T1 construct: bought from Invigate; also called hIL-11; hIL11
# T1 sequence: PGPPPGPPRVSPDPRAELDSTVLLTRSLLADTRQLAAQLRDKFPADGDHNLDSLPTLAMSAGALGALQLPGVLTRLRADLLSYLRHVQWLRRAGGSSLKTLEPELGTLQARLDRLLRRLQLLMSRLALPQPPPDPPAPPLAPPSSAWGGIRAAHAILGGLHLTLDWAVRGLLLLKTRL
# method_description: SPR, antibody captured, IL-11 as analyte
Numbers only, in nM.

[
  {
    "binder": "TPP-26291 (antibody, V domains shown, constant regions not restated) VH: EVQLLESGGGLVQPGGSLRLSCAASGFTFSSYGMHWVRQAPGKGLEWVSVISYDGSYKYYADSVKGRFTISRDNSKNTLYLQMNSLRAEDTAVYYCAAGVPDYWGQGTLVTVSS VL: QSVLTQPPSASGTPGQRVTISCTGSSSNIGAGYDVHWYQQLPGTAPKLLIYSNNERPSGVPDRFSGSKSGTSASLAISGLRSEDEADYYCAAWDPSLNGPVFGGGTKLTVL",
    "measured_metric": "Kd",
    "result_value": 9.7
  },
  {
    "binder": "TPP-26294 (antibody, V domains shown, constant regions not restated) VH: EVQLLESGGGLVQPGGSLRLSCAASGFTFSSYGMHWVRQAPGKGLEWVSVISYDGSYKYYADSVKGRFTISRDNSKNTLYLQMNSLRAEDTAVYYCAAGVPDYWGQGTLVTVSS VL: QSVLTQPPSASGTPGQRVTISCTGSSSNIGAAYDVHWYQQLPGTAPKLLIYSNNERPSGVPDRFSGSKSGTSASLAISGLRSEDEADYYCAAWDDSLNGPVFGGGTKLTVL",
    "measured_metric": "Kd",
    "result_value": 11
  },
  {
    "binder": "TPP-26312 (antibody, V domains shown, constant regions not restated) VH: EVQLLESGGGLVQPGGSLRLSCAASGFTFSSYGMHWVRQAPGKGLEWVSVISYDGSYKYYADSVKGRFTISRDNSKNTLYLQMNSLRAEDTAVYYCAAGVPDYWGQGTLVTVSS VL: QSVLTQPPSASGTPGQRVTISCTGSSSNIGAGLDVHWYQQLPGTAPKLLIYSNNERPSGVPDRFSGSKSGTSASLAISGLRSEDEADYYCAAWDDSLNGPVFGGGTKLTVL",
    "measured_metric": "Kd",
    "result_value": 10
  },
  {
    "binder": "TPP-26316 (antibody, V domains shown, constant regions not restated) VH: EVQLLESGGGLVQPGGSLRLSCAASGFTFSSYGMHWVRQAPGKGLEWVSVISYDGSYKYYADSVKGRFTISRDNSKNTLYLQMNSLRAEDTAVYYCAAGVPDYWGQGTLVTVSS VL: QSVLTQPPSASGTPGQRVTISCTGSSSNIGAGYDVHWYQQLPGTAPKLLIYSNNERPSGVPDRFSGSKSGTSASLAISGLRSEDEADYYCAAWDMSLNGPVFGGGTKLTVL",
    "measured_metric": "Kd",
    "result_value": 8.4
  }
]

Okay, now this binder:
Need Kd, item TPP-26320 (antibody, V domains shown, constant regions not restated) VH: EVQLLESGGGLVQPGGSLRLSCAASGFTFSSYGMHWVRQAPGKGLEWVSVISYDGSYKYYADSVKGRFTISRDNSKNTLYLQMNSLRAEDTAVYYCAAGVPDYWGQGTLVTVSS VL: QSVLTQPPSASGTPGQRVTISCTGSSSNIGAGYDVHWYQQLPGTAPKLLIYSNEERPSGVPDRFSGSKSGTSASLAISGLRSEDEADYYCAAWDDSLNGPVFGGGTKLTVL 13
